target: furin (Homo sapiens); construct: made in house; host or cells: Drosophila S2 cells (Invitrogen expression system); assay: biochemical; details: furin, Pyr-RTKR-AMC substrate; optimization of the inhibitory peptides (Table 3); read-out: Ki
Sequence (P09958 108-794 limits assumed): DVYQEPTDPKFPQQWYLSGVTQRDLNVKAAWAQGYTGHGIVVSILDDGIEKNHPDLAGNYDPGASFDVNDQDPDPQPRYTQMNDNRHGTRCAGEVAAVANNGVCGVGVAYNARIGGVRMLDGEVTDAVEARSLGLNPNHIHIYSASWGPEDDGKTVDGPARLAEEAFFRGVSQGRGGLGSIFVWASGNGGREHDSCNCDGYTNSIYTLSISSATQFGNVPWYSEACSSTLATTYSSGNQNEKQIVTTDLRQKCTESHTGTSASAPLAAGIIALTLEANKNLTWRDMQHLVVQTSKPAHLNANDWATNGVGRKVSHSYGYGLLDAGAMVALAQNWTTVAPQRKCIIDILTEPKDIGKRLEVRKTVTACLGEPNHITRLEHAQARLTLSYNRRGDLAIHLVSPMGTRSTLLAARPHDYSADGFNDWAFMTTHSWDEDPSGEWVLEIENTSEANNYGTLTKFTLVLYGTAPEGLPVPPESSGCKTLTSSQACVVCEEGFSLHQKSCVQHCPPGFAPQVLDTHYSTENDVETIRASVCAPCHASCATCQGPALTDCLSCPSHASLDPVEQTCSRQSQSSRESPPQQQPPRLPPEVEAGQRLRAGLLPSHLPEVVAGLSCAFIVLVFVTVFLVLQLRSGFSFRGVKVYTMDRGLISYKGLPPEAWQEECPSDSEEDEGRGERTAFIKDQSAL
Residues, ends and D or L forms follow the SMILES beside them.
value.type: Ki

{"compound": "C[C@@H](O)[C@H](N)C(=O)N1CCC[C@H]1C(=O)N[C@@H](CCC(N)=O)C(=O)N[C@@H](CCCNC(=N)N)C(=O)N[C@@H](Cc1c[nH]cn1)C(=O)N[C@@H](CCCNC(=N)N)C(=O)N[C@@H](CCCNC(=N)N)C(=O)N[C@@H](CCCNC(=N)N)C(=O)N[C@@H](CCCCN)C(=O)N[C@@H](CCCCN)C(=O)N[C@@H](CCCNC(=N)N)C(=O)NCC(N)=O (H-TPQRHRRRKKRG-NH2)", "assay.target": "furin (Homo sapiens)", "value.type": "Ki", "result": "> 100 nM"}
{"compound": "C[C@@H](O)[C@H](N)C(=O)N1CCC[C@H]1C(=O)N[C@@H](CCC(N)=O)C(=O)N[C@@H](CCCNC(=N)N)C(=O)N[C@H](CCC(=O)O)C(=O)N[C@@H](CCCNC(=N)N)C(=O)N[C@@H](CCCNC(=N)N)C(=O)N[C@@H](CCCNC(=N)N)C(=O)N[C@@H](CCCCN)C(=O)N[C@@H](CCCCN)C(=O)N[C@@H](CCCNC(=N)N)C(=O)NCC(N)=O", "assay.target": "furin (Homo sapiens)", "value.type": "Ki", "result": "> 100 nM"}
{"compound": "C[C@@H](O)[C@H](N)C(=O)N1CCC[C@H]1C(=O)N[C@@H](CCC(N)=O)C(=O)N[C@@H](CCCNC(=N)N)C(=O)N[C@@H](CCCNC(=N)N)C(=O)N[C@@H](CCCNC(=N)N)C(=O)N[C@@H](CCCNC(=N)N)C(=O)N[C@@H](CCCNC(=N)N)C(=O)N[C@@H](CCCCN)C(=O)N[C@@H](CCCCN)C(=O)N[C@@H](CCCNC(=N)N)C(=O)NCC(N)=O", "assay.target": "furin (Homo sapiens)", "value.type": "Ki", "result": "> 100 nM"}

* * *

Ki reference
molecular target: PC5/6; test: Ki, μM | PC5/6

{"sequence.content": "TPQRARRRKKRW", "unit.name": "µM", "Ki": 0.433}
{"sequence.content": "TPRARRRKKRI", "unit.name": "µM", "Ki": 0.492}
{"sequence.content": "TPQRARRRKKRT", "unit.name": "µM", "Ki": 0.188}
{"sequence.content": "TPQRARRRKKRY", "unit.name": "µM", "Ki": 0.649}

Origin of the recorded values: patent US8053553B2
